Just for reference, paper PMC6274350 is where these values come from.

# ASSAY_REMARKS: CellTiter-Glo luminescent cell viability (cytotoxicity) assay on hepatocytes
# Type: cell-based, human
# CONDITION_INFO: human; Liver cells, hepatocytes (HepaRG); 500 µM; 24 h; vs DMSO vehicle
PARAMETER_MEASURED: viability at 24 h, 500 µM (%)
Give bare numbers, in %.

The examples below pair each entry with its known result.
COMPOUND: Cc1nc2cc(F)c(N3CCN(c4ccccc4O)CC3)cc2o1 [Compound 7f]
viability at 24 h, 500 µM / %: 54

COMPOUND: O=[N+]([O-])c1cc(F)c(N2CCN(c3ccc(F)cc3)CC2)cc1O [Compound 6d]
viability at 24 h, 500 µM / %: 13

Attention now shifts to the item below.
Task item: Which viability at 24 h, 500 µM is listed for Cc1nc2cc(F)c(N3CCN(c4ccc(Cl)c(Cl)c4)CC3)cc2o1 [Compound 7j] ?
Reply: 7

* * *

# ASSAY_REMARKS: CellTiter-Glo luminescent cell viability (cytotoxicity) assay on hepatocytes
# Format: cell-based, human
# CONDITION_INFO: human; Liver cells, hepatocytes (HepaRG); 0.1 µM; 24 h; vs DMSO vehicle
Would you mind telling me the reported viability at 24 h, 0.1 µM of each entry?

Recorded viability at 24 h, 0.1 µM, per entry:
GIVEN_SMILES: Cc1ccc(N2CCN(c3cc4oc(C)nc4cc3F)CC2)cc1
viability at 24 h, 0.1 µM: 105%
//
GIVEN_SMILES: Cc1nc2cc(F)c(N3CCN(c4cccc(O)c4)CC3)cc2o1
viability at 24 h, 0.1 µM: 100%
//
GIVEN_SMILES: Cc1nc2cc(F)c(N3CCN(c4ccc(Cl)c(Cl)c4)CC3)cc2o1
viability at 24 h, 0.1 µM: 100%

Lab note: each compound below needs its viability at 24 h, 0.1 µM filled in.
1. COc1ccc(N2CCN(c3cc4oc(C)nc4cc3F)CC2)cc1
2. O=[N+]([O-])c1cc(F)c(N2CCN(c3ccccc3)CC2)cc1O
3. O=[N+]([O-])c1cc(F)c(N2CCN(c3ccc(F)cc3)CC2)cc1O
4. O=[N+]([O-])c1cc(F)c(N2CCN(c3ccccc3O)CC2)cc1O
5. Cc1nc2cc(F)c(N3CCN(c4ccc(F)cc4)CC3)cc2o1
6. O=[N+]([O-])c1cc(F)c(N2CCN(c3ccc(Cl)c(Cl)c3)CC2)cc1O

Reply:
107%
86%
94%
105%
91%
119%

* * *

Field: viability at 24 h, 0.1 µM. Provide a value for each of the compounds that follow.
# ASSAY_REMARKS: CellTiter-Glo luminescent cell viability (cytotoxicity) assay on hepatocytes
# Format: cell-based, human
# CONDITION_INFO: human; Liver cells, hepatocytes (HepaRG); 0.1 µM; 24 h; vs DMSO vehicle
# Method: The cytotoxicity of prepared benzoxazoles (7a–j) and intermediates (6a–j and 9) were measured by applying the CellTiter-Glo® luminescent cell proliferation assay (G755A, Promega, Madison, WI, USA). This method permits the determination of viable cells numbers in the culture based on quantitation of the ATP present, which denotes the presence of metabolically active cells. […]
One number for each entry, in %.

COMPOUND: Cc1nc2cc(F)c(N3CCN(c4ccccc4O)CC3)cc2o1 [Compound 7f]
viability at 24 h, 0.1 µM [%]: 106
--
COMPOUND: O=[N+]([O-])c1cc(F)c(N2CCN(c3cccc(O)c3)CC2)cc1O [Compound 6h]
viability at 24 h, 0.1 µM [%]: 117
--
COMPOUND: COc1ccc(N2CCN(c3cc(O)c([N+](=O)[O-])cc3F)CC2)cc1 [Compound 6e]
viability at 24 h, 0.1 µM [%]: 107
--
COMPOUND: O=[N+]([O-])c1cc(F)c(N2CCN(c3ccc(O)cc3)CC2)cc1O [Compound 6c]
viability at 24 h, 0.1 µM [%]: 95

Now, please, on to the next compound.
Task item: Can you look up the measured viability at 24 h, 0.1 µM of O=[N+]([O-])c1cc(F)c(N2CCN(c3ccccc3F)CC2)cc1O [Compound 6g] for me?
Reply: 110

* * *

So I've got a bunch of compounds here, and I need their viability at 24 h, 1 µM values.
# ASSAY_REMARKS: CellTiter-Glo luminescent cell viability (cytotoxicity) assay on hepatocytes
# Format: cell-based, human
# CONDITION_INFO: human; Liver cells, hepatocytes (HepaRG); 1 µM; 24 h; vs DMSO vehicle
Give bare numbers, in %.

// below: answered compounds
GIVEN_SMILES: Cc1nc2cc(F)c(N3CCN(c4ccc(O)cc4)CC3)cc2o1
UNITS: %
viability at 24 h, 1 µM: 107
//
GIVEN_SMILES: Cc1nc2cc(F)c(N3CCN(c4ccccc4)CC3)cc2o1
UNITS: %
viability at 24 h, 1 µM: 97
//
GIVEN_SMILES: O=[N+]([O-])c1cc(F)c(N2CCN(c3ccccc3F)CC2)cc1O
UNITS: %
viability at 24 h, 1 µM: 109
//
GIVEN_SMILES: Cc1nc2cc(F)c(N3CCN(c4cccc(O)c4)CC3)cc2o1
UNITS: %
viability at 24 h, 1 µM: 102
//
GIVEN_SMILES: Cc1nc2cc(F)c(N3CCN(c4ccccc4F)CC3)cc2o1
UNITS: %
viability at 24 h, 1 µM: 106

Task item: What does the data say about its viability at 24 h, 1 µM? Entry: COc1ccc(N2CCN(c3cc(O)c([N+](=O)[O-])cc3F)CC2)cc1
Reply: 110

* * *

# System: A-549 lung carcinoma cells
# ASSAY_REMARKS: CellTiter-Glo luminescent cell viability (cytotoxicity) assay on lung cancer cells
# Format: cell-based, human
# CONDITION_INFO: Homo sapiens, A549; Lung cancer cells (A-549); 100 µM; 24 h; vs DMSO vehicle
PARAMETER_MEASURED: viability at 100 µM (%)
Answers are plain numbers, in %.

Here's what some known entries look like.
GIVEN_SMILES: Cc1nc2cc(F)c(N3CCN(c4ccccc4F)CC3)cc2o1
viability at 100 µM, %: 63
--
GIVEN_SMILES: O=[N+]([O-])c1cc(F)c(N2CCN(c3ccccc3O)CC2)cc1O
viability at 100 µM, %: 46
--
GIVEN_SMILES: Cc1nc2cc(F)c(N3CCN(c4ccc(F)cc4)CC3)cc2o1
viability at 100 µM, %: 82

Okay, next one:
Task item: Fill in: viability at 100 µM of O=[N+]([O-])c1cc(F)c(N2CCN(c3ccccc3F)CC2)cc1O is ___
Reply: 42

* * *

Exercise: state measured viability at 24 h, 100 µM for each of the compounds provided.
# ASSAY_REMARKS: CellTiter-Glo luminescent cell viability (cytotoxicity) assay on hepatocytes
# Type: cell-based, human
# CONDITION_INFO: human; Liver cells, hepatocytes (HepaRG); 100 µM; 24 h; vs DMSO vehicle
# Method: The cytotoxicity of prepared benzoxazoles (7a–j) and intermediates (6a–j and 9) were measured by applying the CellTiter-Glo® luminescent cell proliferation assay (G755A, Promega, Madison, WI, USA). This method permits the determination of viable cells numbers in the culture based on quantitation of the ATP present, which denotes the presence of metabolically active cells. […]
One number for each entry, in %.

COMPOUND: COc1ccc(N2CCN(c3cc(O)c([N+](=O)[O-])cc3F)CC2)cc1 [Compound 6e]
viability at 24 h, 100 µM (%): 79

COMPOUND: Cc1nc2cc(F)c(N3CCN(c4ccccc4O)CC3)cc2o1 [Compound 7f]
viability at 24 h, 100 µM (%): 60

COMPOUND: O=[N+]([O-])c1cc(F)c(N2CCN(c3ccc(O)cc3)CC2)cc1O [Compound 6c]
viability at 24 h, 100 µM (%): 89

COMPOUND: O=[N+]([O-])c1cc(F)c(N2CCN(c3ccc(F)cc3)CC2)cc1O [Compound 6d]
viability at 24 h, 100 µM (%): 62

COMPOUND: O=[N+]([O-])c1cc(F)c(N2CCN(c3cccc(O)c3)CC2)cc1O [Compound 6h]
viability at 24 h, 100 µM (%): 58

COMPOUND: Cc1nc2cc(F)c(N3CCN(c4ccc(Cl)c(Cl)c4)CC3)cc2o1 [Compound 7j]
viability at 24 h, 100 µM (%): 27

COMPOUND: O=[N+]([O-])c1cc(F)c(N2CCN(c3ccccc3)CC2)cc1O [Compound 6a]
viability at 24 h, 100 µM (%): 76

COMPOUND: Cc1ccc(N2CCN(c3cc4oc(C)nc4cc3F)CC2)cc1 [Compound 7b]
viability at 24 h, 100 µM (%): 60

Please go through the list and note viability at 24 h, 100 µM for each compound.
1. O=[N+]([O-])c1cc(F)c(N2CCN(c3ccc(Cl)c(Cl)c3)CC2)cc1O [Compound 6j]
2. Cc1ccc(N2CCN(c3cc(O)c([N+](=O)[O-])cc3F)CC2)cc1 [Compound 6b]

Reply:
[108, 96]
